Measured k1 Lymnaea by item
TARGET: Lymnaea AChBP (Lymnaea stagnalis, UniProt P58154)
Sequence (P58154 20-229 limits assumed): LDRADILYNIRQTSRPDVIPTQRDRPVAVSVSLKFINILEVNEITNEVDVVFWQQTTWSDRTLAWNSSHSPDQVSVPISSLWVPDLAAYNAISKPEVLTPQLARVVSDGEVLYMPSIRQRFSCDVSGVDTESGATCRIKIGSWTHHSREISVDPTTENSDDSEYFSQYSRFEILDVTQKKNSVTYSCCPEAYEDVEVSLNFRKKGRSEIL
EXPERIMENT_SUMMARY: biochemical
Type: binding
Value expressed in M⁻¹ s⁻¹; do not type the unit.

Give k1 Lymnaea for the following compound: CC[N+](CC)(CC)CCOc1cccc(OCC[N+](CC)(CC)CC)c1OCC[N+](CC)(CC)CC
2.5e+08

----------
TARGET: Lymnaea AChBP (Lymnaea stagnalis, UniProt P58154)
EXPERIMENT_SUMMARY: biochemical
Format: binding
QUANTITY: Kd (µM)
Value expressed in µM; do not type the unit.

Give Kd for the following compound: C[N+](C)(C)CCOC(N)=O
5.6

----------
TARGET: Aplysia AChBP (Aplysia californica, UniProt Q8WSF8)
Sequence (Q8WSF8 18-236): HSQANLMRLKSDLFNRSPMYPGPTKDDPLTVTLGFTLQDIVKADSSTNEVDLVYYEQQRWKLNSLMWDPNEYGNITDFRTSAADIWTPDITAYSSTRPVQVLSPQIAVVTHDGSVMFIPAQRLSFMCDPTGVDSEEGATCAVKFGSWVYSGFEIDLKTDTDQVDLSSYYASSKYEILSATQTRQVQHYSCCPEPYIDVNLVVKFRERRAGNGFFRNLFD
EXPERIMENT_SUMMARY: biochemical
Format: binding
QUANTITY: k1 Aplysia (M⁻¹ s⁻¹)
Value expressed in M⁻¹ s⁻¹; do not type the unit.

Illustrative cases are given below, each with its answer.
CN1CCCC1c1cccnc1 (single isomer, unassigned; (-)) [(−)-Nicotine] : 2.3e+08
CCN1C[C@]2(COC(=O)c3ccccc3N3C(=O)C[C@H](C)C3=O)CC[C@H](OC)[C@@]34[C@@H]5C[C@H]6[C@H](OC)[C@@H]5[C@](O)(C[C@@H]6OC)[C@@](O)([C@@H](OC)[C@H]23)[C@@H]14 : 4.4e+07
CC[N+](CC)(CC)CCOc1cccc(OCC[N+](CC)(CC)CC)c1OCC[N+](CC)(CC)CC : 2.5e+08

Let us examine a further case.
Give k1 Aplysia for the following compound: Clc1ccc(C2CC3CCC2N3)cn1 (stereo not shown) [Epibatidine]
2.5e+08

----------
Measured k−1 Aplysia by item
TARGET: Aplysia AChBP (Aplysia californica, UniProt Q8WSF8)
EXPERIMENT_SUMMARY: biochemical
Type: binding
Value expressed in s⁻¹; do not type the unit.

Clc1ccc(C2CC3CCC2N3)cn1 (stereo not shown) [Epibatidine] : 3.4

Give k−1 Aplysia for the following compound: CC[N+](CC)(CC)CCOc1cccc(OCC[N+](CC)(CC)CC)c1OCC[N+](CC)(CC)CC [Gallamine]
65

Give k−1 Aplysia for the following compound: CN1CCCC1c1cccnc1 (single isomer, unassigned; (-)) [(−)-Nicotine]
49

Give k−1 Aplysia for the following compound: CCN1C[C@]2(COC(=O)c3ccccc3N3C(=O)C[C@H](C)C3=O)CC[C@H](OC)[C@@]34[C@@H]5C[C@H]6[C@H](OC)[C@@H]5[C@](O)(C[C@@H]6OC)[C@@](O)([C@@H](OC)[C@H]23)[C@@H]14 [Methyllycaconitine]
0.12

----------
TARGET: Lymnaea AChBP (Lymnaea stagnalis)
EXPERIMENT_SUMMARY: biochemical
Type: binding
Measured k1 by item
Value expressed in M⁻¹ s⁻¹; do not type the unit.

CN1CCCC1c1cccnc1 (single isomer, unassigned; (-)) [(−)-Nicotine] : 1.5e+08

Let us examine a further case.
Give k1 for the following compound: COc1cc2c3cc1Oc1cc(ccc1O)C[C@@H]1c4c(cc(OC)c(O)c4Oc4ccc(cc4)C[C@@H]3N(C)CC2)CC[N+]1(C)C
2e+08

----------
TARGET: Lymnaea AChBP (Lymnaea stagnalis)
EXPERIMENT_SUMMARY: biochemical
Assay type: binding
QUANTITY: pKd
# pKd = -log10(concentration in molar units)

Illustrative cases are given below, each with its answer.
Clc1ccc(C2CC3CCC2N3)cn1 (stereo not shown) [Epibatidine] : 9.80
O=C1C[C@@H]2OCC=C3CN4CC[C@]56c7ccccc7N1[C@H]5[C@H]2[C@H]3C[C@H]46 [Strychnine] : 7.64
C[N+](C)(C)CCCCCCCCCC[N+](C)(C)C [Decamethonium] : 6.42

Give pKd for the following molecule: CC[N+](CC)(CC)CCOc1cccc(OCC[N+](CC)(CC)CC)c1OCC[N+](CC)(CC)CC [Gallamine]
6.85
